Test system: MS2 coat protein
Assay Procedure: apparent KD of MS2 coat protein; designed switch direction (-1 OFF switch, 1 ON switch): -1; higher = weaker reporter binding
Cond: Eterna round: R95; input ligand: microRNA oligo, concentration not stated
Assay Endpoint: apparent KD of MS2 coat protein (µM)
Return type: number; implicit unit µM.

Record excerpt, results attached:
Input line: Would you kindly share the measured apparent KD of MS2 coat protein for GCAGGUUAAGUCAGGAUAUACCUAUGGAUACAUAGGUAGAAGGGACAUGAGGAUCACCCAUGUUCCUCACCUGC [Fiskers BMX 4 - 21] (puzzle: Brourd's mod of Exclusion 4) ?
Output line: 0.0139

Input line: Query: apparent KD of MS2 coat protein; subject: AGUGCGUAUGUGAGGAUAUGCUGGUCCUUGGAUCGGCAGAAGGCACAUGAGGAUCACCCAUGUGGUGUCGUACG [salish99_Bmod_ex4_077] (puzzle: Brourd's mod of Exclusion 4)
Output line: 0.0586

Note: attention shifts to another entry.
Input line: Look up apparent KD of MS2 coat protein for this sequence: CGUGCGUAUGUGAGGAUAUGCUGGUCCUUGGCUCGGCAGAAGGCACAUGAGGAUCACCCAUGUGGUGUCGUACC [salish99_Bmod_ex4_061] (puzzle: Brourd's mod of Exclusion 4)
Output line: 0.0189

###

Test system: MS2 coat protein
Assay Procedure: apparent KD of MS2 coat protein; designed switch direction (-1 OFF switch, 1 ON switch): -1; higher = weaker reporter binding
Cond: Eterna round: R95; input ligand: none
Would you mind labelling by apparent KD of MS2 coat protein? At or over 30 nM is Condition met, under is Condition not met.

Input line: Assess whether reported apparent KD of MS2 coat protein for GACCCUAGGGUCAGAUGCACAAGCUUUUUGCUCGUUUUAACAUGAGGAUCACCCAUGUCUAGUGGAUCUGAUCGGGC [Erorente] (puzzle: Sensor v3, turn-off variant 2) sits at 30 nM or higher.
Output line: Condition not met

Input line: apparent KD of MS2 coat protein >= 30 nM for CAGUACUACAAGCUUCGGGACAUGAGGAUCACCCAUGUUCGUCUUAUUGAUCUAGGUACGCUGACGUACCUAGAUCU [JL-sv1-2.13 Brourd mod] (puzzle: Sensor v3, turn-off variant 1) ?
Output line: Condition not met

Others:
Input line: Reported apparent KD of MS2 coat protein at or above 30 nM? GGUUGCGCAGGAUAUACAUGAGGAUCACCCAUGUGAGAGAAAUAAGUGAGGAAGAAAAGUAGAAGGGCGUGACA [Mat - Exclusion 3 - Mod of Salish D75] (puzzle: Exclusion 3)
Output line: Condition met

Input line: Is apparent KD of MS2 coat protein at least 30 nM? Consider CGUGACUCAGGAUAUCUAUUAUAUCACAUGAGGAUCACCCAUGUCCAGCGAAAGCUGGAGGGAGAAGGGAGUCACG [Fiskers Ex 5 - 44] (puzzle: Exclusion 5)
Output line: Condition met

Input line: Check the entry UAGAUGGCUCAGGAUAUUUGCCAACUAACCCGCAAAGAAGGGAGCACAUGAGGAUCACCCAUGUGAUCGAACAA [Xeortibeza] (puzzle: Exclusion 6) : does apparent KD of MS2 coat protein equal or exceed 30 nM?
Output line: Condition not met

Input line: Can UUUAAUUUUUUUUUUUUACAAGCUUUUUGCUCGUCUUAUACAUGAGGAUCACCCAUGUGGGUAAGAGAUAAAUUAUC [JMF 13] (puzzle: Sensor v3, turn-off variant 2) be said to have apparent KD of MS2 coat protein at or above 30 nM?
Output line: Condition not met

Input line: // inclusive: apparent KD of MS2 coat protein at least 30 nM? input: CGUGUGCAGUAGGAUAUCCAAAUCCUGUGGAUAGGAGAAGGACUGACAUGAGGAUCACCCAUGUGGGUAAAGAC [Velaxediza] (puzzle: Exclusion 6)
Output line: Condition met

Input line: # check: apparent KD of MS2 coat protein of UAAUAUAGUGUGAGGAUAUGCUGGUCCUUGGAUCAGCAGAAGGCACAUGAGGAUCACCCAUGUAGUUUAUUUUA [Mat - Exclusion 4 - JL Mod - D2] (puzzle: Brourd's mod of Exclusion 4) is greater than or equal to 30 nM
Output line: Condition not met

Input line: Exam item: decide whether the reported apparent KD of MS2 coat protein for UCAAGUAUGUAGGAUAUGAUGUGAUUAUACAUAUCAGAAGGACGUACAUGAGGAUCACCCAUGUAACUUGCAUG [Exclusion 6 - B - 12:c] (puzzle: Exclusion 6) is at least 30 nM.
Output line: Condition met

Where these numbers come from: the supplement of paper PMC9170038
